Could you please report measured IC50 for the items listed next?
- assayed system: human full-length MKNK1 (Homo sapiens (Human), UniProt Q9BUB5, T344D)
- Sequence (Q9BUB5 other isoform, or with tags, fused parts or gaps T344D): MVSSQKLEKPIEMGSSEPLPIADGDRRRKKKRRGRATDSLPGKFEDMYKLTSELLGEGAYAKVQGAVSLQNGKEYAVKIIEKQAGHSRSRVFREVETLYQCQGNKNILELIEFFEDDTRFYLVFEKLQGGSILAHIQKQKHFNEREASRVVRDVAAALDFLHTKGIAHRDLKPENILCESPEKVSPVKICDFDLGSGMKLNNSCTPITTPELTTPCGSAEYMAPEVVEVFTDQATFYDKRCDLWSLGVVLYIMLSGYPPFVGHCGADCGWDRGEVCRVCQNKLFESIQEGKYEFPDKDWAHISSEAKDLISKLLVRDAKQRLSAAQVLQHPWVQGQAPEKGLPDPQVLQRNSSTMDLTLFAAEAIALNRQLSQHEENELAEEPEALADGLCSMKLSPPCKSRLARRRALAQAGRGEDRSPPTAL
- protocol details: MKNK1 kinase assay (MKNK1 TR-FRET assay)
- Format: biochemical
- test context: 10 μM ATP final conc.; 15 min preincubation with enzyme
Numbers only, in nM.

Please state IC50 for every compound in the list that follows.
1. N[C@H](COc1ccc2ncc(-c3cc4ccccc4o3)n2n1)c1ccc(Cl)cc1 [Example 62]
2. N[C@H](COc1ccc2ncc(-c3cc4ccccc4o3)n2n1)Cc1ccccc1 [Example 50]
3. C[C@H](CN)Oc1ccc2ncc(-c3cc4cccc(F)c4o3)n2n1 [Example 48]

**Result**
1: 31; 2: 27; 3: 71

Provide IC50 for all items below, preserving their order.
1. N[C@H]1C[C@H](Oc2ccc3ncc(-c4cc5c(F)cccc5o4)n3n2)C1 [Example 36]
2. N[C@H]1CCC[C@@H]1Oc1ccc2ncc(-c3cc4ccccc4o3)n2n1 [Example 24]

**Result**
[1, 10]

###

- assayed system: human full-length MKNK1 (Homo sapiens (Human), UniProt Q9BUB5, T344D)
- protocol details: MKNK1 kinase assay (MKNK1 TR-FRET assay)
- Type: biochemical
- test context: 10 μM ATP final conc.; 15 min preincubation with enzyme
Kindly supply the reported pIC50 values for the records listed here.
Give bare numbers, as −log10 of the molar value.

Before answering, review these 5 worked examples.
NC1(COc2ccc3ncc(-c4cc5ccccc5o4)n3n2)CC1 [Example 51] | 7.54
NCC(Oc1ccc2ncc(-c3cc4ccccc4o3)n2n1)c1cccc(C(F)(F)F)c1 (stereo not drawn) [Example 59] | 7.43
C[C@@H](N)COc1ccc2ncc(-c3cc4ccccc4o3)n2n1 [Example 42] | 7.82
NCC(Oc1ccc2ncc(-c3cc4ccccc4o3)n2n1)c1ccc(F)cc1F (stereo not drawn) [Example 60] | 7.41
COc1ccc2oc(-c3cnc4ccc(O[C@H]5C[C@H](N)C5)nn34)cc2c1 [Example 38] | 8.52

Provide pIC50 for all items below, preserving their order.
1. NCC1(COc2ccc3ncc(-c4cc5ccccc5o4)n3n2)COC1 [Example 44]
2. C[C@H](N)COc1ccc2ncc(-c3cc4ccccc4o3)n2n1 [Example 7]
3. NCC(CN)Oc1ccc2ncc(-c3cc4ccccc4o3)n2n1 [Example 34]
4. N[C@H]1C[C@@H](Oc2ccc3ncc(-c4cc5ccccc5o4)n3n2)C1 [Example 3]

**Result**
[7.28, 8.15, 7.41, 8.40]

###

Kindly state pIC50 for each of the entries shown.
- assayed system: human full-length MKNK1 (Homo sapiens (Human), UniProt Q9BUB5, T344D)
- protocol details: MKNK1 kinase high ATP assay (TR-FRET-based)
- Format: biochemical
- test context: 2 mM ATP final conc.; 15 min preincubation with enzyme
One number for each entry, as −log10 of the molar value.

Look over these answered cases.
C[C@@H](N)COc1ccc2ncc(-c3cc4cc(Cl)ccc4o3)n2n1 [Example 43] | 7.21
N[C@H]1C[C@H](COc2ccc3ncc(-c4cc5ccccc5o4)n3n2)C1 [Example 22] | 7.77
N[C@@H]1CCCC[C@H]1Oc1ccc2ncc(-c3cc4ccccc4o3)n2n1 [Example 23] | 7.74
NCC(CN1CCOCC1)Oc1ccc2ncc(-c3cc4ccccc4o3)n2n1 (centres unmarked) [Example 31] | 7.11

Continue with the molecule presented below.
**Query** Quick one: give measured pIC50 for NCC1(COc2ccc3ncc(-c4cc5ccccc5o4)n3n2)COC1 [Example 44]
**Result** 7.20
